experimental target: Syk (356-635 amino acids) catalytic domain (Homo sapiens (Human))
method notes: Inhibition of enzymatic Syk kinase activity (radiometric)
Assay type: biochemical
condition summary: read-out: IC50 Syk
pIC50: −log10 of the molar value.
Field: pIC50. Provide a value for each of the compounds that follow.

Reported pIC50 (Syk (356-635 amino acids) catalytic domain (Homo sapiens (Human))) for entry N#CCC1CCN(c2nc(Nc3ccc(N4CCC(CCCO)CC4)cc3)c3c(=O)[nH]ncc3n2)CC1 is > 7.30

Reported pIC50 (Syk (356-635 amino acids) catalytic domain (Homo sapiens (Human))) for entry N#CCC(=O)N1CCN(c2ccc(Nc3nc(N4CCC(CC#N)CC4)nc4cn[nH]c(=O)c34)cn2)CC1 is > 7.30

Reported pIC50 (Syk (356-635 amino acids) catalytic domain (Homo sapiens (Human))) for entry COc1cc(Nc2nc(N3CCC(CC#N)CC3)nc3cn[nH]c(=O)c23)cc(OC)c1 is < 7.00

Reported pIC50 (Syk (356-635 amino acids) catalytic domain (Homo sapiens (Human))) for entry O=c1[nH]ncc2nc(N3CCCCCC3)nc(Nc3ccc(N4CCNCC4)nc3)c12 is > 7.30

Reported pIC50 (Syk (356-635 amino acids) catalytic domain (Homo sapiens (Human))) for entry O=c1[nH]ncc2nc(N3CCCCCC3)nc(Nc3ccc(OCCN4CCC(O)CC4)cc3)c12 is > 7.30

Reported pIC50 (Syk (356-635 amino acids) catalytic domain (Homo sapiens (Human))) for entry O=c1[nH]ncc2nc(N3CCC4(CC3)CC4)nc(Nc3ccc(N4CCOCC4)cc3)c12 is < 7.00

Reported pIC50 (Syk (356-635 amino acids) catalytic domain (Homo sapiens (Human))) for entry COCCN1CCN(c2ccc(Nc3nc(N4CCCCCC4)nc4cn[nH]c(=O)c34)cc2)CC1 is > 7.30

Reported pIC50 (Syk (356-635 amino acids) catalytic domain (Homo sapiens (Human))) for entry N#CC1CCN(c2nc(Nc3ccc(OCCN4CCNCC4)cc3)c3c(=O)[nH]ncc3n2)CC1 is < 7.00
